Data provenance is the supplement of paper PMC9732359.

# MEASUREMENT PROTOCOL: protein stability index of a GFP-peptide fusion (yeast GPS) (PSI 1-4); higher = more stable; sorted into four equal gates, so the index is relative within each strain
# CONDITION SUMMARY: doa10∆

SEQUENCE ENTRY	protein stability index
SNFADSADYEILYEIRA [YDL116W/NUP84]	1.83
GAKQTQGGAMNKKSEQA [SRP72]	2.77
WTIPHKKWNDLKNKNFK [SIR2]	3.22
CLSPGAFLSKVPEFFQT [SRP14]	2.73
KGRNNESNNKKYPIFTG [YDL088C/ASM4]	2.87
PLFFVDLKLLFNTEAEQ [RGR1]	2.73
QDVIKVLYQSNATHDED [SWP82]	2.91
NYLNDMHDSNLQNNSDS [SKP1]	2.48
GQNLKDLLVNFSAGAAA [RPP1A]	2.27
ETISNVAKTAPNSNKTH [SNF2]	2.96
LNESDCLEACSFILSSL [YDL116W/NUP84]	2.62
SGIRLIEPELFNGYNPE [FAS2]	2.81
TREDVSPHYNSQKQTLI [SSN3]	2.16
RLKVFEGIPPPYDKKKR [RPL16A]	2.99
QFEVSDDEKNDKQARKQ [SNF2]	3.38
LTHSTPKNFGIGQAVQP [RPL8A]	3.06
PQFNSPYDSNNSNTNLN [SWI1]	2.97
VPPILIILPLDNATLTE [SSN2]	2.97
FIRSTNSWFDVTWRTFT [FAS1]	1.37
YSIDEFFLQRKLRSELG [BRR2]	2.3
KNEKLILEESLNAIILK [SMC3]	2.74
DLIHKSEAFPSLQSCSV [SMC4]	2.53
FAFWNLLVKFIKFFWNN [YLR018C/POM34]	2.13
VDIKGEDLHEKNDSAEV [NUT1]	3.54
HVKQCQETCDKLRARLV [SMC2]	2.2
LRDYTTVPRIVQLLSKS [RPN2]	1.62
LAQLTSKLIPEVINKEI [RPS1A]	2.82
QVASIIESFVELGVSIY [NUT2]	2.77
VMWGKVTRTHGNSGVVR [RPL33A]	2.83
LEHVLLVPTASFFIASQ [FAS1]	1.25

###

# MEASUREMENT PROTOCOL: protein stability index of a GFP-peptide fusion (yeast GPS) (PSI 1-4); higher = more stable; sorted into four equal gates, so the index is relative within each strain
# CONDITION SUMMARY: pdr5∆
# protein stability index >= 3 gives 1, anything below gives -1

SEQUENCE ENTRY	ASSIGNED CATEGORY
YTPEESAWIWPMDEETK [RPC25]	-1
ESITYQKIMILQRTILN [RGR1]	-1
QVPDSLDDQIFVCEKSI [RPN6]	1

###

# MEASUREMENT PROTOCOL: protein stability index of a GFP-peptide fusion (yeast GPS) (PSI 1-4); higher = more stable; sorted into four equal gates, so the index is relative within each strain
# CONDITION SUMMARY: ubr1∆
Short version: protein stability index at least 3 is Satisfied, less is Not satisfied.

SEQUENCE ENTRY	ASSIGNED CATEGORY
TSSNIVLETHESGIKPY [RPT6]	Not satisfied
AIHIFESYYNWKYNNFL [YML103C/NUP188]	Not satisfied
AKRNLPHTTLVNECIAQ [CDC53]	Not satisfied
KIAYRGVKDCQEGLITT [SSN2]	Not satisfied
DGRVNRFYELEESLTVL [YJR042W/NUP85]	Not satisfied
HKDIPEEDFYTVVGNAS [DSN1]	Satisfied
EELKNMFLYILKHLEEM [RRI2]	Not satisfied
LENKADPLVSLMMVEKV [RPT6]	Not satisfied
ELGAINLHALSMSLQSK [SWI1]	Not satisfied
ISVGLYDTTPLLDTNSL [SKI6]	Not satisfied
HCYPRQLCQITCQILES [RRP46]	Not satisfied
DPSLNLKLLAKSHVLLA [BRR2]	Not satisfied
EETDDEDKQNIEINEDN [RRI2]	Satisfied
SDSETNHKSKDNNNGDD [SKP1]	Satisfied
GNIFSNIGTPSFNMAQI [SNF5]	Not satisfied
KINRPPVSVSRIARALK [RPL18A]	Not satisfied
LIENCKQVLDVDPVYKD [FAS2]	Satisfied
YLAHEDNKEKDFELEIS [PRE10]	Satisfied
